Hey, just so you know, these numbers are from paper PMC2453633.

# tested-target: I-A^g7 (Mus musculus, UniProt P04228+Q31135)
Peptide text beside a SMILES is read from it.
IC50 values, listed per item
Give the quantity in µM, number only.

Take a look at these entries with their results.
{"columns": ["compound", "parameter-measured", "measured-result"],
 "data": [
  ["CC(C)C[C@H](NC(=O)[C@H](C)NC(=O)[C@H](CC(C)C)NC(=O)[C@@H](NC(=O)[C@H](CCC(N)=O)NC(=O)[C@H](CC(C)C)NC(=O)[C@H](CC(=O)O)NC(=O)CNC(=O)[C@H](C)NC(=O)CN)[C@@H](C)O)C(=O)N[C@@H](CCC(=O)O)C(=O)N[C@H](C(=O)N[C@@H](C)C(=O)N[C@@H](CCC(N)=O)C(=O)N[C@@H](CCC(N)=O)C(=O)N[C@@H](CCCCN)C(=O)N[C@@H](CCCNC(=N)N)C(=O)NCC(=O)O)C(C)C [PI-2(49–66)] (H-GAGDLQTLALEVAQQKRG-OH)", "IC50", 136],
  ["CC(C)C[C@H](NC(=O)[C@H](C)NC(=O)[C@H](CC(C)C)NC(=O)[C@@H](NC(=O)[C@H](CCC(N)=O)NC(=O)[C@H](CC(C)C)NC(=O)[C@H](CC(=O)O)NC(=O)CNC(=O)[C@@H]1CCCN1C(=O)[C@@H](N)CO)[C@@H](C)O)C(=O)N[C@@H](CCC(=O)O)C(=O)N[C@H](C(=O)N[C@@H](C)C(=O)N[C@@H](CCCNC(=N)N)C(=O)N[C@@H](CCC(N)=O)C(=O)N[C@@H](CCCCN)C(=O)N[C@@H](CCCNC(=N)N)C(=O)NCC(=O)O)C(C)C [PI-1(47–64)] (H-SPGDLQTLALEVARQKRG-OH)", "IC50", 98.9],
  ["CC(C)[C@H](NC(=O)[C@H](CCCCN)NC(=O)[C@H](CCCCN)NC(=O)CN)C(=O)N[C@@H](C)C(=O)N[C@H](C(=O)N[C@H](C(=O)N[C@H](C(=O)N[C@@H](Cc1c[nH]cn1)C(=O)N[C@@H](C)C(=O)NCC(=O)N[C@@H](Cc1ccc(O)cc1)C(=O)NCC(=O)O)C(C)C)[C@@H](C)O)[C@@H](C)O [MIME, reference compound] (H-GKKVATTVHAGYG-OH)", "IC50", 1]
]}

Endpoint output: IC50 of CC(C)C[C@H](NC(=O)[C@H](C)NC(=O)[C@H](CC(C)C)NC(=O)[C@@H](NC(=O)[C@H](CCC(N)=O)NC(=O)[C@H](CC(C)C)NC(=O)[C@H](CC(=O)O)NC(=O)CN)[C@@H](C)O)C(=O)N[C@@H](CCC(=O)O)C(=O)N[C@H](C(=O)N[C@@H](C)C(=O)N[C@@H](CCCNC(=N)N)C(=O)N[C@@H](CCC(N)=O)C(=O)O)C(C)C [PI-1(49–61)] (H-GDLQTLALEVARQ-OH) . Value?
20
